# Target or system: human β3 adrenergic receptor (Homo sapiens, UniProt P13945)
# Construct: Full length β3 AR clones (402 amino acids) containing the last 6 amino acids of hβ3—AR are prepared; expressed in transfected cells; host or cells: CHO cells
# Sequence (P13945 whole entry): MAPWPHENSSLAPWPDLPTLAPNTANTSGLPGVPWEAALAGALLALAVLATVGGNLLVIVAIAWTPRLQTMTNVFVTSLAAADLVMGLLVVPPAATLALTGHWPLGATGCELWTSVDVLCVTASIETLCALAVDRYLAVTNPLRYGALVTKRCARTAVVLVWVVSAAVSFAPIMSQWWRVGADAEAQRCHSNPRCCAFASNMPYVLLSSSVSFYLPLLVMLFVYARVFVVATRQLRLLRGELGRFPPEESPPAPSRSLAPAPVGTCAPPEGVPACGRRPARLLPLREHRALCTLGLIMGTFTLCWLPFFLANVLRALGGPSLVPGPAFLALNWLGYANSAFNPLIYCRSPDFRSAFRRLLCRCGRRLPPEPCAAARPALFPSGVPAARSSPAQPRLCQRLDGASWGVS
# Protocol summary: cAMP accumulation (SPA) in CHO cells transfected with human β3 adrenergic receptor
# Format: cell-based
# Condition summary: maximal response relative to isoproterenol at 10^-5M (IA=% activity compound/% activity isoproterenol)
Quantity name: IA(β3)

Known IA(β3) results, listed for orientation:
{"Molecule": "COc1ccc(-c2nc(CS(=O)(=O)c3ccc(CCNC[C@H](O)COc4ccc(O)c(C)c4)cc3)no2)cc1 [Example 19]", "IA(β3)": 0.95}
{"Molecule": "COc1ccc(-c2nc(CS(=O)(=O)c3ccc(CCNC[C@H](O)c4ccc(O)c(NS(C)(=O)=O)c4)cc3)no2)cc1 [Example 27]", "IA(β3)": 1}
{"Molecule": "[O-][S+](Cc1noc(Cc2ccccc2)n1)c1ccc(CCNC[C@H](O)COc2ccc(O)cc2)cc1 (stereo partly shown) [Example 24]", "IA(β3)": 0.62}
{"Molecule": "CC(C)(C)c1nc(CS(=O)(=O)c2ccc(CCNC[C@H](O)COc3ccc(O)cc3)cc2)no1 [Example 15]", "IA(β3)": 0.92}
{"Molecule": "COc1ccc(-c2nc(CS(=O)(=O)c3ccc(CCNC[C@H](O)COc4ccc(O)cc4)cc3)no2)cc1 [Example 29]", "IA(β3)": 1.1}

1. Cc1ccc(-c2noc(CSc3ccc(CCNC[C@H](O)COc4cccc5[nH]nnc45)cc3)n2)cc1 [Example 33]
2. CC(C)(C)c1nc(CSc2ccc(CCNC[C@H](O)COc3ccc(O)cc3)cc2)no1 [Example 32]
I'm curious whether 1 or 2 has the smaller IA(β3) number. Which is it? Return value: the label identifying the chosen record.
1
(1: 0.44, 2: 1.2)

Where do these numbers come from? They come from patent US6458817B1.
